Attribution: patent US20100331315A1

molecular target: recombinant human CK2 (Homo sapiens, UniProt P68400); construct: purchased Upstate; assay: CK2 assay (cell-free, 33P-ATP filter plate); format: biochemical; settings: Table 2
Sequence (P68400 whole entry): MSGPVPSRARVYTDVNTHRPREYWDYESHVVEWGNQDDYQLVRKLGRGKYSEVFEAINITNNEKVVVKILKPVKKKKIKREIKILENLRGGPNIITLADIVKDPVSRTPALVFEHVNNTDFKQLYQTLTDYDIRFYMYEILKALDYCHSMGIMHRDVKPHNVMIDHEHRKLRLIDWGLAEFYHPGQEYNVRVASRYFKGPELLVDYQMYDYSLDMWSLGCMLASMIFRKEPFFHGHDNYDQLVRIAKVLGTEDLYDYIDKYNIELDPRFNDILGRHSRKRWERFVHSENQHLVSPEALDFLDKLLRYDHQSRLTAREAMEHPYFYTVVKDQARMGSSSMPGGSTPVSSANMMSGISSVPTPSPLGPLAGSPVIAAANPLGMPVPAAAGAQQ
Sequence (P67870 whole entry partner): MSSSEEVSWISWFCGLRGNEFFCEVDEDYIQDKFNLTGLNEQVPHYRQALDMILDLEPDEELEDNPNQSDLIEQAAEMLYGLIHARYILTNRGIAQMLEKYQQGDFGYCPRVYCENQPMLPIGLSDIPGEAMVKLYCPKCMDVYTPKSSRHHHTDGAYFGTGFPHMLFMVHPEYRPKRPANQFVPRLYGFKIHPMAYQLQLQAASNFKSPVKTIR
Measured Quantity: IC50 (nM)

Sample Smiles	IC50 [nM]
O=C1NC(=O)/C(=C\c2ccc(-c3ccc(C(=O)O)cc3)o2)S1	9

1. NS(=O)(=O)c1ccc(-c2ccc(/C=C3\SC(=O)NC3=O)o2)cc1
2. CN1CCCN(C(=O)c2cccc(-c3ccc(/C=C4/SC(=O)NC4=O)o3)c2)CC1
3. CN1CCCN(C(=O)c2ccc(-c3ccc(/C=C4/SC(=O)NC4=O)o3)cc2)CC1
4. O=C1NC(=O)/C(=C/c2ccc(-c3cccc(C(=O)O)c3)o2)S1
Incoming: Ascending by IC50, please. Submit the labels in the order that the ranking request calls for.
Outgoing: 2, 1, 4, 3
